Where these numbers come from: patent US20210030895A1

protocolSummary: Emission (fluorescence) spectrum and fluorescence quantum yield of material-containing resin film (Quantaurus-QY C11347)
Assay type: physicochemical
observable: Quantum yield (%)
The reply should contain only the number, in %.

Here is how some molecules turned out for Quantum yield.
molecule	valueUnit	Quantum yield
CCCCCCCCOc1ccc(-c2c3c4n(c(-c5ccc(OCCCCCCCC)cc5)c3c3n2[B-](F)(F)[n+]2c(ccc5cc(C(C)(C)C)ccc52)C=3C#N)[B-](F)(F)[n+]2c(ccc3cc(C(C)(C)C)ccc32)C=4C#N)cc1 [near infrared fluorescent material F]	%	35
CCCCC(CC)COc1ccc(-c2c3c4n(c(-c5ccc(OCC(CC)CCCC)cc5)c3c3n2[B-](c2ccccc2)(c2ccccc2)[n+]2c(oc5ccc(C(C)(C)C)cc52)C=3C#N)[B-](c2ccccc2)(c2ccccc2)[n+]2c(oc3ccc(C(C)(C)C)cc32)C=4C#N)cc1 (stereo not shown) [near infrared fluorescent material H]	%	36
COc1ccc(-c2cc3c(s2)=CC2=C(C(F)(F)F)c4cc5sc(-c6ccc(OC)cc6)cc5n4[B-](F)(F)[N+]=32)cc1 [near infrared fluorescent material D]	%	17

Turning now to a further record.
# Quantum yield of CCCCCCCCOc1ccc(-c2c3c4n(c(-c5ccc(OCCCCCCCC)cc5)c3c3n2[B-](c2ccccc2)(c2ccccc2)[n+]2c(C)cc(C)nc2C=3C#N)[B-](c2ccccc2)(c2ccccc2)[n+]2c(C)cc(C)nc2C=4C#N)cc1 [near infrared fluorescent material G] = 35
